Reference source: ChEMBL document CHEMBL1127742

# target desc: Sex hormone-binding globulin (Homo sapiens) (UniProt P04278)
# Sequence (whole entry): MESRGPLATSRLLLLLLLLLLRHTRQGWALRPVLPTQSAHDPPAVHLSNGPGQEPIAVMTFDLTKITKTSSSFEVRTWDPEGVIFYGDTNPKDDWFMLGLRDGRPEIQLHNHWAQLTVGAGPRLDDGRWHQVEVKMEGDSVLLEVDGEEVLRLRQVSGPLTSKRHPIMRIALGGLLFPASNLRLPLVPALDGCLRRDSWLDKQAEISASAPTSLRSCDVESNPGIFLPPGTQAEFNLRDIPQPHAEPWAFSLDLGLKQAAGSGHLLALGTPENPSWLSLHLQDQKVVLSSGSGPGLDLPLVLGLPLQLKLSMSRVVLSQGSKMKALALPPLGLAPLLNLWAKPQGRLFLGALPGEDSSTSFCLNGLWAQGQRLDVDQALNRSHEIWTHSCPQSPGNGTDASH
Below, each entry is listed alongside its reported Log 1/K.

Consider the worked cases shown below.
C[C@]12CC[C@@H](O)C[C@@H]1CC[C@@H]1[C@@H]2CC[C@]2(C)C(=O)CC[C@@H]12 = 7.15
C[C@]12C[C@H](O)[C@H]3[C@@H](CCC4=CC(=O)CC[C@@]43C)[C@@H]1CC[C@@H]2C(=O)CO = 6.34

Name the recorded Log 1/K of the item "C[C@]12CCC(=O)C=C1CC[C@@H]1[C@@H]2CC[C@@]2(C)[C@H]1CC[C@]2(O)C(=O)CO" in your answer. 7.2

Name the recorded Log 1/K of the item C[C@]12CC[C@H](O)CC1=CCC1C2CC[C@]2(C)C(=O)CCC12 (stereo partly drawn) in your answer. 7.82

Name the recorded Log 1/K of the item "C[C@]12CCC(=O)C=C1CC[C@@H]1[C@@H]2CC[C@]2(C)C(=O)CC[C@@H]12" in your answer. 7.46

Name the recorded Log 1/K of the item "C[C@]12CCC(=O)C=C1CC[C@@H]1[C@@H]2[C@@H](O)C[C@@]2(C)[C@H]1CC[C@]2(O)C(=O)CO" in your answer. 6.2

Name the recorded Log 1/K of the item "CC(=O)[C@H]1CC[C@H]2[C@@H]3CC=C4C[C@@H](O)CC[C@]4(C)[C@H]3CC[C@]12C" in your answer. 7.15

Name the recorded Log 1/K of the item "C[C@]12CC[C@@H](O)C[C@H]1CC[C@@H]1[C@@H]2CC[C@]2(C)C(=O)CC[C@@H]12" in your answer. 6.15
